# Test system: U-937
# Assay Comment: Cytotoxicity against human U937 cells by MTT assay
# Type: functional, cell-based
I'd appreciate it if you could supply pIC50 values for the items below.
Quick note: pIC50 values are minus log10 of concentrations in mol/L.

## Input If you can, please state the reported pIC50 value of "O=C1c2c(O)ccc(O)c2C(=O)c2c(NCCNCCO)ccc(NCCNCCO)c21" .
## Output 5.21

## Input Looking for the measured pIC50 of "C[C@H](CC[C@@H](C)[C@H]1CC[C@H]2[C@@H]3CC=C4C[C@@H](O)CC[C@]4(C)[C@H]3CC[C@]12C)[C@@H]1C[C@H]1C" , can you help?
## Output 4.73

## Input Item CC(CCC(C)C1CCC2C3CC4OC45CC(O)CCC5(C)C3CCC12C)C1CC1C (centres undefined) has what recorded pIC50?
## Output 4.70

## Input Look up pIC50: "C[C@H](CC[C@@H](C)[C@H]1CC[C@H]2[C@@H]3CC(=O)C4=CC(=O)CC[C@]4(C)[C@H]3CC[C@]12C)[C@@H]1C[C@H]1C"
## Output 4.66
